Would you kindly list CC50 at 48 h for each of these compounds?
Assay: Cell viability by ATPlite
Assay type: cell-based
Conditions: human, Huh-7 cells
Numbers only, in µM.

1) Cc1ccc(NC(=O)COc2ccc(C=C3C(=O)N(c4ccccc4)C(=S)N(c4ccccc4)C3=O)cc2)cc1C [Compound 9] = 61.5

Let us move to another entry and its CC50 at 48 h.
Ask: Recorded CC50 at 48 h for Oc1cccc(-c2c3nc(c(-c4cccc(O)c4)c4ccc([nH]4)c(-c4cccc(O)c4)c4nc(c(-c5cccc(O)c5)c5ccc2[nH]5)CC4)C=C3)c1 [Temoporfin, reference compound] , please?
Result: 61.1

====

Would you kindly list pEC50 for each of these compounds?
Tested on: ZIKV (MR-766)
Experiment: ZIKV RNA replication in infected Huh-7 cells by RT-qPCR
Assay type: cell-based, Zika virus
Conditions: Zika virus, Huh-7, 72 h
Give bare numbers, as −log10 of the molar value.

1. COc1cc(C=C2C(=O)N(c3ccc(C)cc3)C(=S)N(c3ccc(C)cc3)C2=O)cc(Br)c1O = 6.28

// for each compound in input: emit pEC50
1. COc1cc(C=C2C(=O)N(c3ccccc3)C(=S)N(c3ccccc3)C2=O)cc(I)c1OCc1ccccc1Cl
2. Oc1cccc(-c2c3nc(c(-c4cccc(O)c4)c4ccc([nH]4)c(-c4cccc(O)c4)c4nc(c(-c5cccc(O)c5)c5ccc2[nH]5)CC4)C=C3)c1 [Temoporfin, reference compound]
3. Cc1ccc(NC(=O)COc2ccc(C=C3C(=O)N(c4ccccc4)C(=S)N(c4ccccc4)C3=O)cc2)cc1C

Result:
1: 5.67; 2: 5.70; 3: 5.45

====

pIC50: −log10 of the molar value.
Dear all, this message contains pIC50 results, target or system ZIKV NS2B-NS3 protease (Zika virus).

// for each molecule in input: emit pIC50
1. Cc1ccc(S(=O)(=O)/N=C2\C=C(NS(=O)(=O)c3ccccc3)C(=O)c3ccccc32)c(C)c1
2. COc1cc(C=C2C(=O)N(c3ccccc3)C(=S)N(c3ccccc3)C2=O)cc(I)c1OCc1ccccc1Cl
3. O=C1C(=Cc2cc(I)c(O)c(I)c2)C(=O)N(c2ccccc2)C(=S)N1c1ccccc1
4. Cc1cc(C)c(S(=O)(=O)/N=C2\C=C(NS(=O)(=O)c3ccccc3)C(=O)c3ccccc32)cc1C
5. CCc1ccc(S(=O)(=O)/N=C2\C=C(NS(=O)(=O)c3ccccc3)C(=O)c3ccccc32)cc1

Result:
< 4.00
4.85
< 4.00
< 4.00
< 4.00

// for each molecule in input: emit pIC50
1. Oc1cccc(-c2c3nc(c(-c4cccc(O)c4)c4ccc([nH]4)c(-c4cccc(O)c4)c4nc(c(-c5cccc(O)c5)c5ccc2[nH]5)CC4)C=C3)c1 [Temoporfin, reference compound]
2. Cc1ccc(S(=O)(=O)/N=C2\C=C(NS(=O)(=O)c3ccccc3)C(=O)c3ccccc32)cc1

Result:
1: 4.73; 2: < 4.00

====

Target: ZIKV NS2B-NS3 protease (Zika virus)
measuredAttribute: pIC50
Numbers only, as −log10 of the molar value.

// for each compound in input: emit pIC50
1. CC(=O)Oc1ccc(C=C2C(=O)N(c3ccccc3)C(=S)N(c3ccccc3)C2=O)cc1 [Compound 1]
2. COc1cc(C=C2C(=O)N(c3ccccc3)C(=S)N(c3ccccc3)C2=O)cc(Br)c1OCc1cccc2ccccc12 [Compound 2]

Result:
[4.20, 4.14]

// for each compound in input: emit pIC50
1. COc1cc(C=C2C(=O)N(c3ccc(C)cc3)C(=S)N(c3ccc(C)cc3)C2=O)cc(Br)c1O [Compound 8]
2. Cc1ccc(NC(=O)COc2ccc(C=C3C(=O)N(c4ccccc4)C(=S)N(c4ccccc4)C3=O)cc2)cc1C [Compound 9]

Result:
1: 5.16; 2: 4.85
